Provenance of the data: patent US8178534B2

- System: MKN45
- method-notes: Inhibition of cell viability (MTS), MKN45
- Format: cell-based
- applied-conditions: Homo sapiens, MKN-45, 96 h, MKN45 cells, 96 hours incubation
pEC50: −log10 of the molar value.
reported-metric: pEC50

> print(dat)
                                    compound  reported.measurement
 1  CC(c1ccc2nc(NC(=O)C3CC3)cn2n1)c1nnc2ccc(-c3ccc(F)c(C#N)c3)cn12 (stereo not shown)                > 7.52
 2  O=C(Nc1cn2nc(Sc3nnc4ccc(C#CCO)cn34)ccc2n1)C1CC1          6.20 to 6.60
 3  Cc1n[nH]c(C)c1-c1ccc2nnn(Cc3ccc4nc(NC(=O)C5CC5)cn4n3)c2c1          6.20 to 6.60
 4  COc1cccc(-c2ccc3nnc(C(C)c4ccc5nc(NC(=O)C6CC6)cn5n4)n3c2)c1 (stereo not shown)                > 7.52
 5  COc1ccc(-c2ccc3nnc(C(F)(F)c4ccc5nc(NC(=O)C6CC6)cn5n4)n3c2)cc1                > 7.52
 6  O=C(Nc1cn2nc(Cn3nnc4ccc(-c5ccccc5)cc43)ccc2n1)C1CC1          6.20 to 6.60
 7  O=C(NC1CC1)c1ccc2nnc(Sc3ccc4nc(NC(=O)C5CC5)cn4n3)n2c1                < 6.20
 8  NC(=O)c1cccc(-c2ccc3nnc(C(F)(F)c4ccc5nc(NC(=O)C6CC6)cn5n4)n3c2)c1                > 7.52
 9  Cc1cc(F)cc(-c2ccc3nnc(C(F)(F)c4ccc5nc(NC(=O)C6CC6)cn5n4)n3c2)c1                > 7.52
10  CC(c1ccc2nc(NC(=O)C3CC3)cn2n1)c1nnc2ccc(-c3ccc(F)cc3)cn12 (stereo not shown)                > 7.52
11  O=C(Nc1cn2nc(Cn3nnc4ccc(-c5cccnc5)cc43)ccc2n1)C1CC1                < 6.20
12  COc1cccc(-c2ccc3nnc(C(F)(F)c4ccc5nc(NC(=O)C6CC6)cn5n4)n3c2)c1                > 7.52
13  CCOc1ccc(-c2ccc3nnc(C(C)c4ccc5nc(NC(=O)C6CC6)cn5n4)n3c2)cc1 (stereo not shown)                > 7.52
14  CC(c1ccc2nc(NC(=O)C3CC3)cn2n1)c1nnc2ccc(-c3ccc(C#N)c(F)c3)cn12 (stereo not shown)                > 7.52
15  O=C(Nc1cn2nc(Sc3nnc4ccc(-c5cccc(CCCO)c5)cn34)ccc2n1)C1CC1          6.60 to 7.00
16  CS(=O)(=O)c1ccc(-c2ccc3nnn(Cc4ccc5nc(NC(=O)C6CC6)cn5n4)c3c2)cc1                > 7.00

====

- System: A549
- method-notes: Inhibition of cell viability (MTS), A549 (negative control line)
- Type: cell-based
- applied-conditions: Homo sapiens, A549, 96 h, A549 cells (negative control), 96 hours incubation
reported-metric: EC50

> print(dat)
                                    compound  reported.metric  reported.measurement
 1  CC(c1ccc2nc(NC(=O)C3CC3)cn2n1)c1nnc2ccc(-c3ccc(F)c(C#N)c3)cn12 (stereo not shown)             EC50               > 50 µM
 2  CC(c1ccc2nc(NC(=O)C3CC3)cn2n1)c1nnc2ccc(-c3cccc(C#N)c3)cn12 (stereo not shown)             EC50               > 50 µM
 3  COCc1nc(-c2ccc3nnc(Sc4ccc5nc(NC(=O)C6CC6)cn5n4)n3c2)no1             EC50         0.6 to 1.6 µM
 4  N#Cc1cccc(-c2ccc3nnc(Sc4ccc5nc(NC(=O)C6CC6)cn5n4)n3c2)c1             EC50               > 50 µM
 5  CNC(=O)c1ccc(-c2ccc3nnc(C(C)c4ccc5nc(NC(=O)C6CC6)cn5n4)n3c2)cc1 (stereo not shown)             EC50               > 50 µM
 6  O=C(Nc1cn2nc(C(F)(F)c3nnc4ccc(-c5cnn(CCO)c5)cn34)ccc2n1)C1CC1             EC50               > 50 µM
 7  N#Cc1cc(-c2ccc3nnc(Sc4ccc5nc(NC(=O)C6CC6)cn5n4)n3c2)cnc1O             EC50               > 50 µM
 8  O=C(Nc1cn2nc(Cn3nnc4ccc(-c5cccc(F)c5)cc43)ccc2n1)C1CC1             EC50         0.6 to 1.6 µM
 9  O=C(Nc1cn2nc(Sc3nnc4ccc(-c5cccc(CCCO)c5)cn34)ccc2n1)C1CC1             EC50            8 to 25 µM
10  CC(C)c1ccc2nnc(Sc3ccc4nc(NC(=O)C5CC5)cn4n3)n2c1             EC50             > 19.5 µM
11  CCS(=O)(=O)c1cccc(-c2ccc3nnn(Cc4ccc5nc(NC(=O)C6CC6)cn5n4)c3c2)c1             EC50             > 19.5 µM
12  O=C(Nc1cn2nc(Sc3nnc4ccc(-c5csc(N6CCOCC6)n5)cn34)ccc2n1)C1CC1             EC50               > 50 µM
13  O=C(Nc1cn2nc(Sc3nnc4ccc(-c5ccc(N6CCOCC6)nc5)cn34)ccc2n1)C1CC1             EC50               > 50 µM
14  C[C@@H](c1ccc2nc(NC(=O)C3CC3)cn2n1)c1nnc2ccc(-c3cnn(C)c3)cn12             EC50               > 50 µM
15  Cc1n[nH]c(C)c1-c1ccc2nnn(Cc3ccc4nc(NC(=O)C5CC5)cn4n3)c2c1             EC50               > 50 µM
16  CNC(=O)c1ccc(-c2ccc3nnc(C(C)c4ccc5nc(NC(=O)C6CC6)cn5n4)n3c2)cc1F (stereo not shown)             EC50               > 50 µM
